All values here come from ChEMBL document CHEMBL5053531.

# assayText: Half life in C57BL/6 mouse at 5 mg/kg, sc measured up to 8 hrs by LC-MS analysis
# Assay type: ADME, organism-based
# condition: in vivo
measure: half-life (h)
Form entry: value (h) — number only.

Query: For the compound Cc1ncsc1-c1ccc(CNC(=O)[C@@H]2C[C@@H](O)CN2C(=O)[C@@H](NC(=O)COCCOCCOCCNC(=O)C[C@@H]2N=C(c3ccc(Cl)cc3)c3c(sc(C)c3C)-n3c(C)nnc32)C(C)(C)C)cc1 , what half-life is on record?
Reply: 2.95

====

# assayText: Half life in C57BL/6 mouse at 5 mg/kg, iv measured up to 8 hrs by LC-MS analysis
# Type: ADME, organism-based
# condition: in vivo
measure: half-life (h)
The reply should contain only the number, in h.

Query: Consider the compound Cc1ncsc1-c1ccc(CNC(=O)[C@@H]2C[C@@H](O)CN2C(=O)[C@@H](NC(=O)COCCOCCOCCNC(=O)C[C@@H]2N=C(c3ccc(Cl)cc3)c3c(sc(C)c3C)-n3c(C)nnc32)C(C)(C)C)cc1 and give its measured half-life.
Reply: 1.04
